System: MAPKAPK2;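 also: KINOMEscan scanMAX binding as percent activity remaining versus control; lower means stronger binding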
Details: Compound Concentration (nM):1000
reported-endpoint: Percent Control

These recorded examples may help you get a feel for the data.
COc1cc2ncn(-c3cc(O[C@H](C)c4ccccc4Cl)c(C(N)=O)s3)c2cc1OC [GSK237701A]    100%
Cl.O=C(Nc1ccc(Oc2ccc3[nH]c(NC(=O)c4ccccc4)nc3c2)cc1)Nc1cc(C(F)(F)F)ccc1F [GW709042A]    100%
CCS(=O)(=O)c1ccc(OC)c(Nc2ncc(-c3cccc(OC)c3)o2)c1 [GW580509X]    96%
O=C1Nc2ccc(C(=O)c3ccco3)cc2C1=Cc1cc(Cl)c(O)c(Cl)c1 [GW406108X]    100%
C/C(Nc1ccc(S(N)(=O)=O)cc1)=C1/C(=O)Nc2ccccc21 [GW335962X]    100%

Report Percent Control for each item below.
1. O=C(Nc1n[nH]c2nc(-c3ccc(O)cc3)c(Br)cc12)C1CC1 [SB-725317]
2. CC1=C(C(=O)Nc2ccc3[nH]ncc3c2)C(c2ccc3ccccc3c2)CC(=O)N1 (centres unmarked) [GSK270822A]

# output
1. 100%
2. 97%

# input Check MAPKAPK2 data and give Percent Control for CN1CCN(C(=O)c2ccc(NC(=O)Nc3ccc(N(C)c4ccnc(Nc5ccc(CS(C)(=O)=O)cc5)n4)cc3)cc2)CC1.Cl [GW830263A] .
# output 100%
